Test system: A549/ATCC NSCLC
ASSAY_TEXT: NCI-60 one-dose screen, 48 h
MEASUREMENT_CONTEXT: 10 µM
Protocol: Growth inhibition of the A549/ATCC human Non-Small Cell Lung tumor cell line is measured as a screen for anti-cancer activity. Cells are grown in 96 well plates and exposed to the test compound for 48 hours. Compounds are tested at a single concentration, which is 10^-5 M for most compounds. The reported endpoint is percent growth (GI% or GIPRCNT), where numbers from 0 - 100% represent growth inhibition, and numbers from -100% - 0 represent cell death. […]
This is part of a sample that, as a whole, favours compounds with a hit. Of some 83,000 tested, about 20% had one in any assay. Activity calls are given as the source filed them. Rule for the calls: active = growth percent below 10; inactive = the rest.
Assign a class; possible classes are active, inactive

What outcome does the record of this test show for "C=CCNCCN1C(=O)c2ccc3c4c(ccc(c24)C1=O)C(=O)N(CCNCC=C)C3=O" ?
active

What outcome does the record of this test show for "COc1ccc(-c2cc(-c3ccc(OC)c(OC)c3)nc(SCCCC(=O)NO)n2)cc1" ?
active

What outcome does the record of this test show for "Clc1nc2ccc(Br)cc2cc1-c1nc2ccccc2[nH]1" ?
inactive

What outcome does the record of this test show for "COc1cc2c3c(n([C@@H]4CCOC4)c(=O)c2cc1OC)-c1cc2c(cc1C3=O)OCO2" ?
inactive

What outcome does the record of this test show for "COc1cc2cc(Oc3ccc(NC(=O)Nc4ccc(Cl)c(C(F)(F)F)c4)cc3)c(C)nc2cc1OC" ?
active

What outcome does the record of this test show for "Oc1ccc(/C=N/N=C2c3ccccc3-c3ccccc32)c(O)c1" ?
inactive

What outcome does the record of this test show for "CCN(CC)CCCOc1cccc2c1C(=O)c1cccc(OCCCN(CC)CC)c1C2=O" ?
inactive

What outcome does the record of this test show for COc1cc(/C=C2\CCCC3=C2NC(N)=NC3c2cc(OC)c(OC)c(OC)c2)cc(OC)c1OC (stereo not given) ?
active

What outcome does the record of this test show for "NS(=O)(=O)Oc1ccc2c(ccn2C(=O)C23CC4CC(CC(C4)C2)C3)c1" ?
inactive

What outcome does the record of this test show for "OCCn1cccn1" ?
inactive

What outcome does the record of this test show for CCCCN(CCCC)C(=O)[C@H](CC)[C@@H]1CC[C@@H](C)[C@@H]([C@H](C)[C@@H](O)[C@@H](C)C(=O)[C@H](CC)C2O[C@]3(C=CC(=O)[C@]4(CC[C@@](C)([C@H]5CC[C@](O)(CC)[C@H](C)O5)O4)O3)[C@H](C)C[C@@H]2C)O1 (stereo not given in full) ?
inactive

What outcome does the record of this test show for "COc1ccc2c(c1)C(=O)/C(=C/c1ncc([N+](=O)[O-])n1C)O2" ?
active

What outcome does the record of this test show for "O=C(CSc1nccc(Nc2cccc3ccccc23)n1)c1ccc(Cl)cc1" ?
inactive

What outcome does the record of this test show for "O=[N+]([O-])c1cc(Cl)cc(Cl)c1O" ?
inactive

What outcome does the record of this test show for "CCN(CC)CC(=O)N(CC)c1ccc(C)c(Cl)c1" ?
inactive

What outcome does the record of this test show for "O=C1/C(=C/c2ccc3c(c2)OCO3)SC(=S)N1C1c2ccccc2Oc2ccccc21" ?
inactive

What outcome does the record of this test show for COc1cccc(C2C(C#N)=C(N)Oc3cc(N)ccc32)c1 (stereo not given) ?
inactive

What outcome does the record of this test show for "C=CCn1c(SCC(=O)Nc2ccc(C(=O)/C=C/c3ccc(OC)cc3)cc2)nnc1-c1ccc(OC)c(OC)c1" ?
inactive

What outcome does the record of this test show for "Cc1ccc(S(=O)(=O)N/N=C2\CCCc3ccccc32)cc1" ?
inactive

What outcome does the record of this test show for CCN(CC)c1ccc(/C=C2\SC(=O)C(Nc3nnc(-c4cccnc4SCc4ccccc4)o3)C2=O)cc1 (stereo not given) ?
inactive

Data provenance is PubChem BioAssay (NCI).
